- Target under test: recombinant human His6-GSK-3β (Homo sapiens)
- Construct: His6; purchased EMD Biosciences
- Sequence (P49841 whole entry): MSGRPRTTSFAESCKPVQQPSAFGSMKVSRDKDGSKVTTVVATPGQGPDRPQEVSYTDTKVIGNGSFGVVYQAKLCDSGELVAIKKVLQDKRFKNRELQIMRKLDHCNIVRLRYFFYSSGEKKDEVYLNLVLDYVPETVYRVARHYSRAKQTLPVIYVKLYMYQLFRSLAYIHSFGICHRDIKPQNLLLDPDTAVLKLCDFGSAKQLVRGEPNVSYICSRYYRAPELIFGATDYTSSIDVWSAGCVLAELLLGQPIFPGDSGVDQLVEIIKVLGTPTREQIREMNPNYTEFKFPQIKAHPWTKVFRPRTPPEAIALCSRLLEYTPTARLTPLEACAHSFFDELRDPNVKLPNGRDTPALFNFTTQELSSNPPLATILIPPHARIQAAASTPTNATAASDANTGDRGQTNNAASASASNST
- Protocol details: GSK-3β kinase assay, [γ32P] transfer to primed glycogen synthase peptide;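 also: phosphate incorporation quantified by liquid scintillation counting of the filters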
- Format: biochemical
- Setup conditions: 10 μM ATP; 10 μM pGSM peptide; 30 minutes at 30° C.; read-out: IC50 (nM), GSK-3β inhibition
Property measured: IC50 (nM)
Value expressed in nM; do not type the unit.

Here's what some known entries look like.
Cn1cc(C2=C(c3coc4cc(CO)ccc34)C(=O)NC2=O)c2cc(C#N)ccc21 13.2
Cn1cc(C2=C(c3coc4ccccc34)C(=O)NC2=O)c2cc(OCc3ccccc3)ccc21 500
COc1cccc2c(C3=C(c4cn(C)c5cc(-c6ccc(Cl)cc6)c(F)cc45)C(=O)NC3=O)coc12 7160
Cn1cc(C2=C(c3coc4cc(CO)ccc34)C(=O)NC2=O)c2cccc(CO)c21 5.1
Cn1cc(C2=C(c3coc4ccccc34)C(=O)NC2=O)c2cc(I)ccc21 15.5
Cn1cc(C2=C(c3coc4ccccc34)C(=O)NC2=O)c2cccc(CO)c21 5.4
COCc1cccc2c(C3=C(c4coc5ccccc45)C(=O)NC3=O)cn(C)c12 0.23
Cn1cc(C2=C(c3coc4ccc(F)cc34)C(=O)NC2=O)c2ccc(O)cc21 14

Reported IC50 for Cn1cc(C2=C(c3coc4ccccc34)C(=O)NC2=O)c2cc(F)ccc21 was 26

Reported IC50 ( Cn1cc(C2=C(c3coc4cc(F)c(F)cc34)C(=O)NC2=O)c2ccc3ccccc3c21 ) = 314

Recorded result, COc1cc2c(C3=C(c4coc5ccccc45)C(=O)NC3=O)cn(C)c2cc1Cl , IC50: 440

====

- Target under test: Tek (Homo sapiens, UniProt Q02763)
- Sequence (Q02763 23-1124, species assumed): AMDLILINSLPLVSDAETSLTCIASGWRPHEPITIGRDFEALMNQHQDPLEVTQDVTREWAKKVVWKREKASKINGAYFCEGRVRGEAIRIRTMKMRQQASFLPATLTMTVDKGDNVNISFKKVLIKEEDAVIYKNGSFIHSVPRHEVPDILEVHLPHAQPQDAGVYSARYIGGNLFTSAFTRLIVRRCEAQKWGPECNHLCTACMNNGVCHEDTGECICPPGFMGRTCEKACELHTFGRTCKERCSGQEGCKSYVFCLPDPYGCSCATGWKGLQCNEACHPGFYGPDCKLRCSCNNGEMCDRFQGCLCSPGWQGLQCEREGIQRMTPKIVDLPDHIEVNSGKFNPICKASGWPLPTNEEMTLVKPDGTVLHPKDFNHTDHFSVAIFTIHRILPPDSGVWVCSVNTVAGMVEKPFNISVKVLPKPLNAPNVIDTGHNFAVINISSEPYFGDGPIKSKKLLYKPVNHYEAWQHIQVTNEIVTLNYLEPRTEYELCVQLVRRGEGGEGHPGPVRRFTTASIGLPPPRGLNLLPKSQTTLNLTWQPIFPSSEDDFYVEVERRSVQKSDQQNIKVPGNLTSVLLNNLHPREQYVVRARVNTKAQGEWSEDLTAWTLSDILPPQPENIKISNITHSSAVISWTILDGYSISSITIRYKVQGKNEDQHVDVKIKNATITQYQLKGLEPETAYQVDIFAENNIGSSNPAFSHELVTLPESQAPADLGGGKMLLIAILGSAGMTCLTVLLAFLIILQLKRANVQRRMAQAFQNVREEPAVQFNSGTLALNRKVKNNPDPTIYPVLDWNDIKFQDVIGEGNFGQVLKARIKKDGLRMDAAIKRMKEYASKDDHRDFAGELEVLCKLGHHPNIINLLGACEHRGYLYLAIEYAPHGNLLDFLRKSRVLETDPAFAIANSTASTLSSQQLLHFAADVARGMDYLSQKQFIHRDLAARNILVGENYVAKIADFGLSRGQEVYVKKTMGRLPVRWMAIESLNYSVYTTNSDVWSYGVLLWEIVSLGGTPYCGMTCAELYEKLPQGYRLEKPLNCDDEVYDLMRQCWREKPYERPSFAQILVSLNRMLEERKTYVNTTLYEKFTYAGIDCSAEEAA
- Protocol details: Kinase panel (Novartis)
- Assay type: biochemical
Property measured: IC50

Cn1cc(C2=C(c3coc4ccccc34)C(=O)NC2=O)c2cc(Br)ccc21 > 10 µM

Measured IC50, Cn1cc(C2=C(c3coc4ccccc34)C(=O)NC2=O)c2ccc(O)cc21 : > 10 µM

====

- Tested on: SKOV3
- Protocol details: Antiproliferation assay, ovarian cancer cells
- Assay type: cell-based
- Setup conditions: Homo sapiens, SK-OV-3; ovarian cancer cell proliferation
Mark met for IC50 under 50 µM, not met if at or over.

Cn1cc(C2=C(c3coc4ccccc34)C(=O)NC2=O)c2cc(Br)ccc21 not met
Cn1cc(C2=C(c3coc4ccccc34)C(=O)NC2=O)c2cc(I)ccc21 met

## Task Threshold test, IC50 < 50 µM: COc1cccc2c(C3=C(c4cn(C)c5cc(Cl)c(F)cc45)C(=O)NC3=O)coc12
## Result met

## Task IC50 strictly < 50 µM for this compound? Cn1cc(C2=C(c3coc4ccc(F)cc34)C(=O)NC2=O)c2cc3c(cc21)OCO3
## Result met

====

- Target under test: Flt-3 (Homo sapiens)
- Sequence (P36888 27-993, species assumed): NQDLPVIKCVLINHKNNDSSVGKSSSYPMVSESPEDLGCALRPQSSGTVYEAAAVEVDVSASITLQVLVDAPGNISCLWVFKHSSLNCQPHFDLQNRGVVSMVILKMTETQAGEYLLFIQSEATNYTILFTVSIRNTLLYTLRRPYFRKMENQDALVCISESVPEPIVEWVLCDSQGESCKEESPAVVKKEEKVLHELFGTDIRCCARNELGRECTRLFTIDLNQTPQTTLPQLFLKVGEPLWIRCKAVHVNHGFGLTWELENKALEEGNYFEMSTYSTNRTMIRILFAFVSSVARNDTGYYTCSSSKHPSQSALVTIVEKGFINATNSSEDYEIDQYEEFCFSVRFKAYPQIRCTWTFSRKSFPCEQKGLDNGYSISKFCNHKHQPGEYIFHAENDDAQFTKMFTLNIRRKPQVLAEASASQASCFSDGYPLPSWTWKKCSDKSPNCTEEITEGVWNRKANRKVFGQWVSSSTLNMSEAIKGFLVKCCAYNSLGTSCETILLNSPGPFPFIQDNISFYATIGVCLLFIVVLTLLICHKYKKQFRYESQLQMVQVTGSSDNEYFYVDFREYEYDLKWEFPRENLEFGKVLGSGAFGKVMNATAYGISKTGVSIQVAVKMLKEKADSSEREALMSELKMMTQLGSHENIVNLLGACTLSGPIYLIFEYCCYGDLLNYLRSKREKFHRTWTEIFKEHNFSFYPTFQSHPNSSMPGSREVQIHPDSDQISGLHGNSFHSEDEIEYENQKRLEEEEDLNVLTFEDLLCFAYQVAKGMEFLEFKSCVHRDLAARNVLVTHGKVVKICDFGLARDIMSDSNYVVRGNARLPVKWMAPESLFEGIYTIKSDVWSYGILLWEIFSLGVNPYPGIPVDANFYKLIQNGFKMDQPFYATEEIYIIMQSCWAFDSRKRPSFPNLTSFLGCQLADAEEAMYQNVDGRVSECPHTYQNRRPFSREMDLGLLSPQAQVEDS
- Protocol details: Kinase panel (Novartis)
- Format: biochemical
Property measured: IC50

Cn1cc(C2=C(c3coc4ccccc34)C(=O)NC2=O)c2cc(Br)ccc21 > 10 µM

Recorded IC50 (compound Cn1cc(C2=C(c3coc4ccccc34)C(=O)NC2=O)c2ccc(O)cc21 ): > 10 µM

====

- Target under test: CDK2/A (Homo sapiens)
- Protocol details: Kinase panel (Novartis)
- Type: biochemical
Property measured: Ki (nM)
Your answer should be a plain number; it is taken to be in nM.

Lab note: Cn1cc(C2=C(c3coc4ccccc34)C(=O)NC2=O)c2cc(Br)ccc21 [Compound 19] gave Ki of 189
